pIC50 values for the molecules below.
Test system: KRAS G12C mutant NCI-H358 cells
Test: Cell proliferation inhibition experiment, 3D spheroid, CellTiter-Glo, NCI-H358
Assay type: cell-based, human
Details: Homo sapiens, NCI-H358, 120 h, NCI-H358 (KRAS G12C mutant) 3D spheroid, 5 days with compound, CellTiter-Glo; read-out: H358 IC50
Protocol: […] NCI-H358 is a KRAS G12C mutant human non-small cell lung cancer cell line, cultured in 10% FBS RPMI-1640+1% PS culture medium; and A549 is a KRAS G12S mutant human lung adenocarcinoma cell line, cultured in 10% FBS F-12K+1% PS culture medium. Cells at logarithmic growth stage were taken, digested with trypsin-EDTA, then collected and counted. […] The cell proliferation inhibition rate IR (%)=(RLU control -RLU compound)/(RLU control -RLU blank) x100% was calculated. […]
pIC50: −log10 of the molar value.

{"columns": ["molecule", "pIC50"],
 "data": [
  ["C=CC(=O)N1CCN2C(=O)c3c(N4CCCC(C)C4C)nc(-c4c(O)cccc4F)c(Cl)c3OC[C@H]2C1 (stereo partly shown) [Z99]", 7.58],
  ["C=CC(=O)N1CCN2C(=O)c3c(N4CCN(C(C)=O)C(C)(C)C4)nc(-c4c(O)cccc4F)c(Cl)c3OC[C@H]2C1 [Z315]", 8.30],
  ["C=CC(=O)N1CCN2C(=O)c3c(N4CC[C@@H](OC)C4(C)C)nc(-c4c(O)cccc4F)c(Cl)c3OC[C@H]2C1 (single isomer, unassigned) [Z241a-2]", 9.15],
  ["C=CC(=O)N1CCN2C(=O)c3c(N4CCC(C)(C)C4)nc(-c4c(O)cccc4F)c(Cl)c3OC[C@H]2C1 [Z21]", 7.54],
  ["C=CC(=O)N1CCN2C(=O)c3c(N4CC(C)(C)OC[C@@H]4C)nc(-c4c(O)cccc4F)c(Cl)c3OC[C@H]2C1 [Z276-1]", 8.12],
  ["C=CC(=O)N1CCN2C(=O)c3c(N4CCC5CC54)nc(-c4c(O)cccc4F)c(Cl)c3OC[C@H]2C1 (stereo partly shown) [Z39]", 8.05],
  ["C=CC(=O)N1CCN2C(=O)c3c(N4CC(N5CCOCC5)CC4(C)C)nc(-c4c(O)cccc4F)c(Cl)c3OC[C@H]2C1 (stereo partly shown) [Z344]", 8.89]
]}

Hello, the source for this data is patent US20230203060A1, in case you need it.
